# Tested on: SK-HEP1
# test.description: Cytotoxicity against human SKHEP1 cells at 50 uM after 48 hrs by sulforhodamine B assay
# Type: functional
test.readout: Activity (%)
// units = %; emit number, no label

# Activity of C[C@@H]1C[C@H]2CC(=O)C[C@H](C2)O1 = 26

Looking up C[C@H]1C[C@H]2CCCC(O)=C2C(=O)O1 , I found its Activity recorded as 23

# Activity of CC1=C[C@H](O)[C@@H]2O[C@@H]2C1=O = 100

Per the records, this compound ( C[C@H]1C[C@H]2CC[C@H](O)C(O)=C2C(=O)O1 ) has Activity equal to 3

----------
# Test system: HL-60
# test.description: Induction of apoptosis in human HL60 cells assessed as condensation, smoothening of the cell surface, blebbing of plasma membrane at 30 uM after 30 hrs by scanning electron microscopy
# Format: functional, cell-based
The source made the active and inactive calls. The calls are words filed in the database; no cut-off is given here.
test.readout: Activity

[
  {
    "cpd.smiles": "C[C@H]1C[C@H]2CCCC(O)=C2C(=O)O1",
    "result.value": "Active"
  },
  {
    "cpd.smiles": "C[C@H]1C[C@H]2CC[C@H](O)C(O)=C2C(=O)O1",
    "result.value": "Active"
  },
  {
    "cpd.smiles": "CC1=C[C@H](O)[C@@H]2O[C@@H]2C1=O",
    "result.value": "Active"
  },
  {
    "cpd.smiles": "C[C@@H]1C[C@H]2CC(=O)C[C@H](C2)O1",
    "result.value": "Active"
  }
]

----------
# System: HL-60
# test.description: Induction of apoptosis in human HL60 cells assessed as condensation, smoothening of the cell surface, blebbing of plasma membrane and formation of apoptotic bodies at 50 uM after 30 hrs by scanning electron microscopy
# Format: functional, cell-based
Activity calls are given as the source filed them. The rule behind the calls is not given here.
test.readout: Activity

[
  {
    "cpd.smiles": "C[C@H]1C[C@H]2CC[C@H](O)C(O)=C2C(=O)O1",
    "tgt": "HL-60",
    "test.readout": "Activity",
    "result.value": "Active"
  },
  {
    "cpd.smiles": "C[C@@H]1C[C@H]2CC(=O)C[C@H](C2)O1",
    "tgt": "HL-60",
    "test.readout": "Activity",
    "result.value": "Active"
  },
  {
    "cpd.smiles": "C[C@H]1C[C@H]2CCCC(O)=C2C(=O)O1",
    "tgt": "HL-60",
    "test.readout": "Activity",
    "result.value": "Active"
  },
  {
    "cpd.smiles": "CC1=C[C@H](O)[C@@H]2O[C@@H]2C1=O",
    "tgt": "HL-60",
    "test.readout": "Activity",
    "result.value": "Active"
  }
]
